Assay: NCI Yeast Anticancer Drug Screen. Data for the wt2 strain (AID 169);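 further: 0% = growth of vehicle-treated yeast cultures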
Settings: S. cerevisiae wt2 strain growth inhibition; at 1.2 µM; active compounds read high
This is part of a sample that, as a whole, favours compounds with a hit. Of some 79,000 tested, about 15% had one in any assay.
Entries annotated with measured growth inhibition
The reply should be a number in %, with the unit left off.

Solved cases (6 shown):
INSERT INTO assay_data (compound, assay_readout, unit, value_observed) VALUES
  ('CCc1[nH]nc(C(N)=O)c1N=NN(C)C', 'growth inhibition', '%', -1),
  ('O=Cc1coc2ccccc2c1=O', 'growth inhibition', '%', -17),
  ('NP1(Oc2ccc(F)cc2)=NP(N)(Oc2ccc(F)cc2)=NP(Oc2ccc(F)cc2)(Oc2ccc(F)cc2)=N1 (centres undefined)', 'growth inhibition', '%', 0),
  ('Cc1cc(Cl)nc2nc(Cl)c(N)cc12', 'growth inhibition', '%', -22),
  ('S=P(N1CC1)(N1CC1)N1CC1', 'growth inhibition', '%', -1),
  ('CCOC(=O)C1=C(C)NC(C)=C(C(=O)OCC)C1c1ccc(C)cc1', 'growth inhibition', '%', 5);

Input line: Look at this compound and give its reported growth inhibition. `CN(CC(=O)O)c1ccc(/C=C/c2ccnc3ccccc23)cc1`
Output line: -4

Input line: Look at this compound and give its reported growth inhibition. `CC(=O)O[C@H]1C(=O)[C@@]2(C)[C@H]([C@H](OC(=O)c3ccccc3)[C@]3(O)C[C@H](OC(=O)[C@H](O)[C@@H](NC(=O)c4ccccc4)c4ccccc4)C(C)=C1C3(C)C)[C@]1(OC(C)=O)CO[C@@H]1C[C@@H]2O`
Output line: -2

Input line: Look at this compound and give its reported growth inhibition. `CCCCCCCCCCCCCCCCNC(=O)/C(=C\c1ccc(Cl)c(Cl)c1)NC(=O)c1ccccc1`
Output line: 0

Input line: Look at this compound and give its reported growth inhibition. `Cc1onc(-c2ccccc2Cl)c1C1=N/C(=C/c2cc(Cl)cc(Cl)c2O)C(=O)O1`
Output line: -12

###

Assay: NCI Yeast Anticancer Drug Screen. Data for the bub3 strain (AID 167)
Details: S. cerevisiae bub3 mutant strain, at 1.2 µM, active compounds read high
About 79,000 compounds went through this panel and 15% of them were active in at least one assay; those are over-represented in the sample as a whole.
Assay readout: growth inhibition (%)
The reply should be a number in %, with the unit left off.

INSERT INTO results (compound, assay_readout, value_observed) VALUES
  ('Cc1cccc(/C=N\NC(=S)N2CCCCC2)n1', 'growth inhibition', -2);

// moving on: another record for growth inhibition
Input line: Look at this compound and give its reported growth inhibition. `COc1ccc2c(c1)[nH]c1c(/C=C/c3ccccc3)nccc12`
Output line: 12

###

Assay: NCI Yeast Anticancer Drug Screen. Data for the wt2 strain (AID 169);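 further: 0% = growth of vehicle-treated yeast cultures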
Details: S. cerevisiae wt2 strain growth inhibition; at 3.7 µM; active compounds read high
The panel holds about 79,000 compounds, 15% with a hit somewhere; the sample as a whole holds those more often.
Assay readout: growth inhibition (%)
The reply should be a number in %, with the unit left off.

INSERT INTO results (compound, unit, value_observed) VALUES
  ('CC[C@@]1(OC(=O)CCC(=O)O)C(=O)OCc2c1cc1n(c2=O)Cc2cc3ccccc3nc2-1', '%', -19);

Input line: Look at this compound and give its reported growth inhibition. CC(=O)[C@]1(O)Cc2c(O)c3c(c(O)c2[C@@H](OC2CC(N)C(O)C(C)O2)C1)C(=O)c1c(OCc2ccccc2)cccc1C3=O (stereo partly drawn)
Output line: -65

Input line: Look at this compound and give its reported growth inhibition. `O=C(/C=C/c1cccc(Br)c1)c1ccc(Cl)cc1`
Output line: -28

Reference for the values: PubChem BioAssay (NCI)
